# ASSAY CONTEXT: in isobutanol, 298.15 K
OBSERVABLE: solubility (mole fraction)
I'd appreciate a reply containing only the number, no unit.

Please look up its solubility (mole fraction): CC1(C)O[C@@H]2[C@@H](CO[C@@]3(COS(N)(=O)=O)OC(C)(C)O[C@@H]23)O1
0.00911

###

# ASSAY CONTEXT: in ethanol, 313.15 K
OBSERVABLE: solubility (mole fraction)
Lab note: write the figure by itself, no unit.

Can you look up the measured solubility (mole fraction) of CC1(C)O[C@@H]2[C@@H](CO[C@@]3(COS(N)(=O)=O)OC(C)(C)O[C@@H]23)O1 for me?
0.079

Reference for the values: BigSolDB 2.1
